Some binders, each annotated with its measured glycan array binding signal (z-score).
molecular target: GalNAc(b1-4)GlcNAc; experiment: glycan array binding signal (z-score within array); higher = stronger binding; details: glycan notation: IUPAC condensed, linker removed
The entries come from a sample that favours the strongest signals as a whole.
Give the figure only, with no unit attached.

Solved cases below.
binder	glycan array binding signal (z-score)
chitinase 3-like protein 2 (Homo sapiens) (protein) YKLVCYFTQWSQDRQEPGKFTPENIDPFLCSHLIYSFASIENNKVIIKDKSEVMLYQTINSLKTKNPKLKILLSIGGYLFGSKGFHPMVDSSTSRLEFINSIILFLRNHNFDGLDVSWIYPDQKENTHFTVLIHELAEAFQKDFTKSTKERLLLTAGVSAGRQMIDNSYQVEKLAKDLDFINLLSFDFHGSWEKPLITGHNSPLSKGWQDRGPSSYYNVEYAVGYWIHKGMPSEKVVMGIPTYGHSFTLASAETTVGAPASGPGAAGPITESSGFLAYYEICQFLKGAKITRLQDQQVPYAVKGNQWVGYDDVKSMETKVQFLKNLNLGGAMIWSIDMDDFTGKSCNQGPYPLVQAVKRSLGSL	2.63
AT5G01260(PC)(40) (Arabidopsis thaliana), Q9LFB0 (protein) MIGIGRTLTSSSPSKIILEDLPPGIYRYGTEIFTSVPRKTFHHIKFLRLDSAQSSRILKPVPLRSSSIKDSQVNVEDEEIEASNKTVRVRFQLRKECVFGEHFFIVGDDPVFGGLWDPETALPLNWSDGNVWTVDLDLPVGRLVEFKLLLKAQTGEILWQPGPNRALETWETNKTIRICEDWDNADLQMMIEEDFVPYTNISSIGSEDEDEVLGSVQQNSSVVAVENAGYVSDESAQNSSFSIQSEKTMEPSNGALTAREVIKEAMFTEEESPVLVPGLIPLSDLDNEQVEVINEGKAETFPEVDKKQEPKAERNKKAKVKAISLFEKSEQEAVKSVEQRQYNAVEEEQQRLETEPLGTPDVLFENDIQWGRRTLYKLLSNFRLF	8.76
CSA (Cytisus scoparius), P29257 (protein) SEELSFSFTKFKTDQKNLILQRDALITPTGKLQLTTVENGKPAAYSLGRALYSTPIHIWDKSTGDEASFATFFSFVISDAPNPSTAATDGLAFFLAPADTQPQSAGGYLGLFEKDSSYNSSNQIVAVEFDTYYNSAWDPQTNPHIGIDVNTIKSKKVSSWGFKNGNVATVLITYQPSSKSLVASLVYPSGQTSDKTSYIISANVDLKATVPEWVRIGFSATTGQTDNYIETHDILSWSFKSKLPATKN	6.99
ASA (Allium sativum) (protein) KAHEKERMGRNTPSAKLMSIAAVAAILTILASTCMARNLLTNGEGLYAGQSLNVEPYHFIMQEDCNLVLYDHSTAVWATNTDIPGKKECRAVLQSDGNFVVYDADGRPLWASHSVRGNGNYVLVLQEDGNVVIYGSDIWSTGTYVKAARGPVVVAMNGTVDGGSLIRPVIVNKNHVPVIRKVGTLSRNILRNDEGLYAGQSLDVEPYHFIMHEDCNLVLYDHSTAVWASNTDIPGKKGCKAVLQSDGNFVVYDAEGRSLWASHSVRGNGNYVLVLQEDGNVVIYGSDIWSTDTYRKSARGPVIRKVGTLAGAA	-0.151

Query string: Given the binder Erv46-EDTA (Saccharomyces cerevisiae), P39727 (protein) MKFLVNVALVFMVVYISYIYAAAPEHHHHHHDYDIPTTENLYFQGAMDSVVTRPQLVVDRDRHAKLELNMDVTFPSMPCDLVNLDIMDDSGEMQLDILDAGFTMSRLNSEGRPVGDATELHVGGNGDGTAPVNNDPNYCGPCYGAKDQSQNENLAQEEKVCCQDCDAVRSAYLEAGWAFFDGKNIEQCEREGYVSKINEHLNEGCRIKGSAQINRIQGNLHFAPGKPYQNAYGHFHDTSLYDKTSNLNFNHIINHLSFGKPIQSHSKLLGNDKRHGGAVVATSPLDGRQVFPDRNTHFHQFSYFAKIVPTRYEYLDNVVIETAQFSATFHSRPLAGGRDKDHPNTLHVRGGIPGMFVFFEMSPLKVINKEQ , what is its reported glycan array binding signal (z-score)?
Result string: 0.697

Query string: What does the data say about its glycan array binding signal (z-score)? Entry: SJA (Sophora japonica) (protein) FLGLFNSGGYSSSYQIVAVEFDTYINEWDPKTRHIGIDINSINSTKTVTWGWENGEVAIVLISYKAATETLTVSLTYPSSQTSYILSAAVDLKSILPEWVRIGF
Result string: 3.38
